FYI, the data here is from the RNAGym collection of RNA variant scans (doi:10.7554/elife.80360).

B1: Hairpin Ribozyme (parent)
chain: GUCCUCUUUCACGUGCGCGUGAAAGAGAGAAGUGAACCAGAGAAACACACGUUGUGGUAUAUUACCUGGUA

- Variants of: B1
- PROTOCOL NOTES: self-cleavage, relative activity (ratio to wild type); higher = more cleavage; co-transcriptional
PROPERTY MEASURED: self-cleavage
Quick one: just the number, no unit, thanks!

Prompt line: Supply reported self-cleavage belonging to this variant: GUCCUCUUACACGUGCGCGUGAAAGAGAGAAGUGAACCAGAGAAACACACGUUGUGGUAUAUUACAUGGUA
Response line: 0.166
